Values were extracted from ChEMBL document CHEMBL4392833.

Entries and their GI90 values follow.
Test system: HeLa
Test Summary: Growth inhibition of human HeLa cells by MTT assay
Type: cell-based
Measurement Setup: hela

Molecule	Result Comparator	GI90 [µg/mL]
Cc1ccc(O)c(C2=NNC(c3cn(-c4ccc(F)cc4)nc3-c3sc(C)nc3C)C2)c1 (configuration not stated)	>	250
Cc1nc(C)c(-c2nn(-c3ccc(F)cc3)cc2C2CC(c3cc(Br)ccc3O)=NN2)s1 (configuration not stated)	=	43.11
CC(=O)O[C@H]1C(=O)[C@@]2(C)[C@H]([C@H](OC(=O)c3ccccc3)[C@]3(O)C[C@H](OC(=O)[C@H](O)[C@@H](NC(=O)c4ccccc4)c4ccccc4)C(C)=C1C3(C)C)[C@]1(OC(C)=O)CO[C@@H]1C[C@@H]2O	=	0.075
Cc1nc(C)c(-c2nn(-c3ccc(F)cc3)cc2C2CC(c3cc(Cl)ccc3O)=NN2)s1 (configuration not stated)	>	250
Cc1nc(C)c(-c2nn(-c3ccc(F)cc3)cc2/C=C/C(=O)c2cc(Cl)c(C)cc2O)s1	=	87.29
Cc1nc(C)c(-c2nn(-c3ccc(F)cc3)cc2/C=C/C(=O)c2c(O)cc(C)c(Cl)c2C)s1	=	128.28
Cc1nc(C)c(-c2nn(-c3ccc(F)cc3)cc2/C=C/C(=O)c2cc(Cl)cc(Cl)c2O)s1	>	250

* * *

Tested on: THP-1
Test Summary: Cytotoxicity against human THP1 cells at 30 ug/ml
Format: cell-based
Mark 1.0 for Activity under 20%, 0.0 if at or over.

> print(dat)
                                   molecule  label.class
1  Cc1nc(C)c(-c2nn(-c3ccc(F)cc3)cc2/C=C/C(=O)c2cc(Cl)cc(Cl)c2O)s1          0.0
2  Cc1nc(C)c(-c2nn(-c3ccc(F)cc3)cc2/C=C/C(=O)c2c(O)cc(C)c(Cl)c2C)s1          0.0
3  Cc1ccc(O)c(C2=NNC(c3cn(-c4ccc(F)cc4)nc3-c3sc(C)nc3C)C2)c1 (stereo not given)          0.0
4  Cc1nc(C)c(-c2nn(-c3ccc(F)cc3)cc2/C=C/C(=O)c2cc(Br)ccc2O)s1          0.0
5  Cc1nc(C)c(-c2nn(-c3ccc(F)cc3)cc2/C=C/C(=O)c2cc(Cl)c(C)cc2O)s1          1.0

* * *

Recorded Activity for the following molecules
System: THP-1
Test Summary: Cytotoxicity against human THP1 cells at 3 ug/ml
Type: cell-based
Readout Kind: Activity

> print(dat)
                                   molecule  readout.kind  test.value
1  Cc1nc(C)c(-c2nn(-c3ccc(F)cc3)cc2-c2cc(=O)c3cc(Cl)c(C)cc3o2)s1      Activity      12.82%
2  Cc1nc(C)c(-c2nn(-c3ccc(F)cc3)cc2C2CC(c3cc(Cl)c(C)cc3O)=NN2)s1 (stereo not drawn)      Activity        9.1%
3  Cc1ccc(O)c(C2=NNC(c3cn(-c4ccc(F)cc4)nc3-c3sc(C)nc3C)C2)c1 (stereo not drawn)      Activity       5.94%
4  Cc1nc(C)c(-c2nn(-c3ccc(F)cc3)cc2/C=C/C(=O)c2cc(Br)ccc2O)s1      Activity      20.41%
5  Cc1ccc2oc(-c3cn(-c4ccc(F)cc4)nc3-c3sc(C)nc3C)cc(=O)c2c1      Activity        0.8%
6  Cc1nc(C)c(-c2nn(-c3ccc(F)cc3)cc2C2CC(c3c(O)cc(C)c(Cl)c3C)=NN2)s1 (stereo not drawn)      Activity       9.52%
7  Cc1nc(C)c(-c2nn(-c3ccc(F)cc3)cc2C2CC(c3cc(Cl)ccc3O)=NN2)s1 (stereo not drawn)      Activity       7.09%
8  Cc1nc(C)c(-c2nn(-c3ccc(F)cc3)cc2C2CC(c3cc(Br)ccc3O)=NN2)s1 (stereo not drawn)      Activity      13.91%
